- Protocol Text: method code SF, from DOI: 10.1002/cmdc.201000013, PMID: 20373323
- Condition Summary: pH 7.4
Measured Endpoint: logD
Reply with just the number.

For the compound `O=C1NC(=O)C(c2ccc(Oc3ccccc3)cc2)(N2CCN(CCF)CC2)C(=O)N1` , what logD is on record?
2.15

---

Measured Endpoint: logP
When you answer, write just the number.

Smiles Code: Cc1ccccc1[N+](=O)[O-]
logP: 2.17

As a next step, examine the molecule that follows.
Param item = `CCN(CC)C(C)=O` ; retrieve measured logP.
0.37

---

- Protocol Text: method code SF, from DOI: 10.1016/j.bmc.2005.05.004, PMID: 15946850
- Condition Summary: pH 7.4
Examples of compounds with documented logD follow.

Smiles Code: [O-][n+]1onc(-c2ccc(OCCCc3c[nH]cn3)cc2)c1CO
Recorded Value: 1.83
--
Smiles Code: N#Cc1nonc1-c1ccc(OCCCc2c[nH]cn2)cc1
Recorded Value: 3.04
--
Smiles Code: OCc1nonc1-c1ccc(OCCCc2c[nH]cn2)cc1
Recorded Value: 1.96

Quick one: logD for `N#Cc1c(-c2ccc(OCCCc3c[nH]cn3)cc2)no[n+]1[O-]` ?
2.99

---

Measured Endpoint: logP
Form: value (number only, do not type unit).

Any idea what its logP is? The compound is `N#Cc1ccc(CN2CCC(COC/C=C/I)CC2)cc1`
3.24

---

- Protocol Text: method code SF-AS, from PMID: 12408720
- Condition Summary: pH 7.4
Measured Endpoint: logD
Lab note: record the figure alone, no unit after it.

Which logD value belongs to `Cc1ccc(C(=O)Cn2c3c(sc2=N)CCCC3)cc1` ?
1.49

---

- Protocol Text: method code SF, from DOI: 10.1021/jm9018146, PMID: 20232803
- Condition Summary: pH 7.4
Measured Endpoint: logD

Which value of logD has been reported for `CCOC(=O)[C@@]1(C)CSC(c2ccc(OCCOCCOC)cc2O)=N1` in the records?
3

---

- Protocol Text: method code SF-HPLC, from DOI: 10.1021/jm9509197, PMID: 8648601
- Condition Summary: pH 7.4
Let's look at some compounds and their measured logD.
API doc: respond with a numeric literal and nothing else, no unit.

Compound: O=[N+]([O-])c1ncnc2c1ncn2C1OC(CO)CC1F (configuration not stated)
Recorded Value: -0.4

Please examine the following record next.
Param item = Nc1c2ncn(C3OC(CO)CC3F)c2nc[n+]1[O-] (configuration not stated) ; retrieve measured logD.
-0.98

---

Listed here are compounds together with their documented logP.

Worked examples follow.
Compound: COc1ccc(OC(=O)C2OC(O)C(O)C(O)C2O)cc1 (stereo not given)
Measured Endpoint: logP
Recorded Value: -0.01

Compound: O=C(Oc1ccc2cc(Br)ccc2c1)C1OC(O)C(O)C(O)C1O (stereo not given)
Measured Endpoint: logP
Recorded Value: 1.97

Compound: O=C(Oc1ccccc1)C1OC(O)C(O)C(O)C1O (stereo not given)
Measured Endpoint: logP
Recorded Value: -0.69

Compound: Cc1ccc(OC(=O)C2OC(O)C(O)C(O)C2O)cc1 (stereo not given)
Measured Endpoint: logP
Recorded Value: 0.37

Kindly review the next compound as well.
Consider the compound O=C(Oc1ccc(-c2ccccc2)cc1)C1OC(O)C(O)C(O)C1O (stereo not given) and give its measured logP.
1.79

---

Reported values of logP for individual entries
Lab note: jot the number down without any unit.

Consider the following illustrative entries.
Compound: O=C(CCCCC1CCSS1)NCCN1CCOCC1 (centres undefined)
logP: 1.8
//
Compound: O=C(NCCN1CCOCC1)OCCCCCC1CCSS1 (centres undefined)
logP: 2.9
//
Compound: CC1CN(CCNC(=O)OCCCCCC2CCSS2)CC(C)O1 (centres undefined)
logP: 4.2

Would you kindly look at the next entry?
Please look up its logP: `CCCCCOC(=O)NCCN1CCOCC1`
2.8

---

- Protocol Text: method code SF-AS, from DOI: 10.1248/cpb.15.1705, PMID: 5583828
- Condition Summary: pH 1.1
Measured Endpoint: logD
// print number alone

Smiles Code: C=CCC1(CC)C(=O)NC(=O)NC1=O
logD: 0.95

Bench note: what logD did `CCC1(CCC(C)C)C(=O)NC(=O)NC1=O` show?
2.07

---

Measured Endpoint: logP

Please look up its logP: CCC(Oc1ccc(Cl)cc1C)C(=O)O (stereo unspecified)
3.47

---

- Protocol Text: method code SF-AS, from PMID: 7849133
- Condition Summary: pH 3.6
Measured Endpoint: logD
Respond with the number and no other words.

Find the recorded logD belonging to `O=C(O)c1cccnc1Nc1cccc(C(F)(F)F)c1` and report it.
2.95

---

Attribute: logD
- Protocol Text: method code SF-RC, from DOI: 10.1182/blood.v76.11.2389.bloodjournal76112389, PMID: 2257308
- Condition Summary: pH 7.4

Smiles Code: COCCn1ccc(=O)c(O)c1C
logD: -0.52

Report logD for `CCc1c(O)c(=O)ccn1C` please.
-0.3

---

- Protocol Text: method code SF-HPLC, from DOI: 10.1021/js950346l, PMID: 9109056
Measured Endpoint: logP
Just the number, please, no unit after it.

Can you share its logP? I mean this compound: `COc1ccc2c(c1)c(CC(=O)O)c(C)n2C(=O)c1ccc(Cl)cc1`
3.86

---

- Protocol Text: method code SF-AS, from DOI: 10.1016/j.ejps.2014.12.009, PMID: 25513709
- Condition Summary: pH 7.4
Measured Endpoint: logD
Enter a number only.

Could you share which logD value was measured for COC1=CC(=O)CC(C)C12Oc1c(Cl)c(OC)cc(OC)c1C2=O (stereo unspecified) ?
2.33

---

- Protocol Text: method code SF-AS, from DOI: 10.1016/j.bioorg.2006.09.003, PMID: 17078995
- Condition Summary: pH 7.4
Measured Endpoint: logD
Enter a number only.

Example entries and their recorded answers appear below.
Smiles Code: CC(=O)OCCc1ccc(O)c(O)c1
Measured Endpoint: logD
Recorded Value: 0.95
//
Smiles Code: CCCC(=O)OCCc1ccc(O)c(OC)c1
Measured Endpoint: logD
Recorded Value: 2.54

logD lookup needed for `CCCC(=O)OCCc1ccc(O)c(O)c1` , thanks.
1.77

What logD value was documented for this compound, `CCC(=O)OCCc1ccc(O)c(O)c1` ?
1.2

Given the entry `Cc1cc(CCO)ccc1O` , report its measured logD.
0.5

---

logP values by entry
In your answer, state the number alone without any accompanying words.

Need logP of `CON=C(C#N)C(=O)N[C@@H](CCSC)C(=O)O` , thanks.
0.86

Can you share its logP? I mean this molecule: CON=C(C#N)C(=O)NC(CCS(C)(=O)=O)C(=O)O (configuration not stated)
-0.52

---

- Protocol Text: method code SF-AS, from DOI: 10.1211/0022357001773940, PMID: 10757413
- Condition Summary: pH 7.4
Measured Endpoint: logD
Write no unit; give the number alone.

Give the measured logD of `Cc1c(O)c(=O)ccn1CCc1c[nH]cn1` .
-0.05

---

- Protocol Text: method code SF-HPLC, from DOI: 10.1002/jps.2600841008, PMID: 8801331
- Condition Summary: pH 11.0
Measured Endpoint: logD

Look up logD: CCOC(=O)C1=C(COCCN)NC(C)=C(C(=O)OC)C1c1ccccc1Cl (stereo unspecified)
3.09

---

Catalogue of logP readings, one per entry.

Smiles Code: Nc1ccc(O)c([N+](=O)[O-])c1
Recorded Value: 0.96

We next turn to a different compound, shown below.
Fill in: logP of `Nc1ccccc1N` is ___
0.15

---

The reader will find reported logD values listed item by item below.
- Protocol Text: method code SF-RC, from DOI: 10.1002/ps.2780300102
- Condition Summary: pH 2.0

Smiles Code: COc1nc(C)nc(NC(=O)NS(=O)(=O)c2ccccc2Cl)n1
Recorded Value: 1.54

Here is the next item to consider.
Entry under review: `NC(=O)Nc1ccc(CC(=O)O)cc1` . Reported logD?
0.01

---

- Protocol Text: method code SF, from PMID: 26783178
This listing pairs compounds with measured logP.
Answer field: number only, no words.

Compound: Cc1ccc(N2C(=O)C(CCCNS(=O)(=O)c3ccc(OC(F)(F)F)cc3)C2c2ccc(NS(C)(=O)=O)cc2)cc1 (stereo not drawn)
logP: 3.45

Give the measured logP of `CCc1ccc(S(=O)(=O)NCCC[C@H]2C(=O)N(c3ccc(C)cc3)[C@@H]2c2ccc(NS(=O)(=O)c3ccc(C)cc3)cc2)cc1` .
3.9

I am curious: what logP value has been reported for `Cc1ccc(N2C(=O)[C@H](CCCNS(=O)(=O)c3ccc(OC(F)(F)F)cc3)[C@H]2c2ccc(NS(=O)(=O)c3ccc(C)cc3)cc2)cc1` ?
3.78

---

In this section we review reported logP values for a set of compounds.
- Protocol Text: method code SF-HPLC, from DOI: 10.1023/a:1015956705293, PMID: 3244625
// keep it numeric: no unit symbol after the value

Some solved cases for reference:
Compound: C[C@]12CCC(=O)C=C1CC[C@@H]1[C@@H]2[C@@H](O)C[C@@]2(C)[C@H]1CC[C@]2(O)C(=O)COC(=O)CCCCCC(N)=O
Recorded Value: 2.3
//
Compound: COC(=O)CCCCCC(=O)OCC(=O)C1(O)CCC2C3CCC4=CC(=O)CCC4(C)C3C(O)CC21C (stereo not drawn)
Recorded Value: 3.7

Shifting focus to the compound that follows.
logP for `C[C@]12CCC(=O)C=C1CC[C@@H]1[C@@H]2[C@@H](O)C[C@@]2(C)[C@H]1CC[C@]2(O)C(=O)COC(=O)CCC(N)=O` ?
1.43
